Target Entity: recombinant human NK3 receptor (Homo sapiens)
Method Notes: [3H]SR142801 competition binding assay
Condition Summary: membranes from HEK293 cells transiently expressing recombinant human NK3 receptor; [3H]SR142801 radioligand; 75 min at RT; Ki by Cheng-Prussoff; read-out: Data Ki (hNK-3 receptor affinity)
pKi: −log10 of the molar value.
Endpoint Label: pKi

Worked examples follow.
>>> reported_result("C[C@H](NC(=O)C1(c2ccccc2)CCN(C(=O)c2ccc(-c3ncccn3)cc2)CC1)c1ccccc1")
7.61
>>> reported_result("Cc1noc(-c2ccc(C(=O)N3CCC(C(=O)N[C@@H](C)c4ccc(C(F)(F)F)cc4)(c4ccccc4)CC3)cc2)n1")
7.04
>>> reported_result("Cc1noc(-c2ccc(C(=O)N3CCC(C(=O)NC(c4ccc(F)cc4)C(C)C)(c4ccc(F)cc4)CC3)cc2)n1 (stereo not shown)")
7.96

[P] C[C@H](NC(=O)C1(c2ccccc2)CCN(C(=O)c2csc(-c3cccnc3)n2)CC1)c1ccccc1
[Q] CC(C)C(NC(=O)C1(c2ccc(F)cc2)CCN(C(=O)c2ccc(-c3ccc(F)cc3)cc2)CC1)c1ccccc1 (stereo not shown)
Q. // pick min by pKi: P , Q # answer = label of selected item
A. P

[a] N#Cc1ccc(N2CCC(C(=O)N3CCC(C(=O)NC(c4ccc(F)cc4)C(F)(F)F)(c4ccc(F)cc4)CC3)CC2)nc1 (stereo not shown)
[b] C[C@H](NC(=O)C1(c2ccccc2)CCN(C(=O)c2ccc(-c3ccccc3)cc2)CC1)c1ccccc1
Q. // pick min by pKi: a , b # answer = label of selected item
A. a
(a: 7.12, b: 7.64)

----------
Target Entity: recombinant human NK3 receptor (Homo sapiens)
Method Notes: [3H]SR142801 competition binding assay
Condition Summary: membranes from HEK293 cells transiently expressing recombinant human NK3 receptor; [3H]SR142801 radioligand; 75 min at RT; Ki by Cheng-Prussoff; read-out: Data Ki (hNK-3 receptor affinity)
pKi: −log10 of the molar value.
Endpoint Label: pKi

>>> reported_result("Cc1noc(-c2ccc(C(=O)N3CCC(C(=O)N[C@@H](C)c4ccccc4)(c4ccc(F)cc4)CC3)cc2)n1")
8.22
>>> reported_result("C[C@H](NC(=O)C1(c2ccccc2)CCN(C(=O)c2ccc(-n3cccc3)cc2)CC1)c1ccccc1")
7.02
>>> reported_result("C[C@H](NC(=O)C1(c2ccccc2)CCN(C(=O)c2ccc(-c3cnco3)cc2)CC1)c1ccccc1")
7.18
>>> reported_result("C[C@H](NC(=O)C1(c2ccccc2)CCN(C(=O)N2CCN(c3ccc(S(C)(=O)=O)cc3F)CC2)CC1)c1ccccc1")
7.53
>>> reported_result("O=C(N1CCN(c2ccc(F)cc2)CC1)N1CCC(C(=O)NC(c2ccc(F)cc2)C(F)(F)F)(c2ccc(F)cc2)CC1 (centres unmarked)")
7.11
>>> reported_result("C[C@H](NC(=O)C1(c2ccc(F)cc2)CCN(C(=O)c2ccc(N3CCS(=O)(=O)CC3)cc2)CC1)c1ccc(F)cc1")
7.53
>>> reported_result("C[C@H](NC(=O)C1(c2ccc(F)cc2)CCN(C(=O)C2CCN(c3ccc(C#N)cn3)CC2)CC1)c1ccc(F)cc1")
7.06
>>> reported_result("C[C@H](NC(=O)C1(c2ccccc2)CCN(C(=O)c2ccc(-c3ccccn3)cc2)CC1)c1ccccc1")
7.39

[A] Cc1nc(-c2ccc(C(=O)N3CCC(C(=O)N[C@@H](C)C4CCCCC4)(c4ccccc4)CC3)cc2)no1
[B] CC(=O)c1cccc(-c2ccc(C(=O)N3CCC(C(=O)N[C@@H](C)c4ccccc4)(c4ccccc4)CC3)cc2)c1
[C] O=C(c1ccc(-c2ccc(F)cc2)cc1)N1CCC(C(=O)N[C@H](c2cccc(F)c2)C2CC2)(c2ccc(F)cc2)CC1
[D] Cc1nnc(C)n1C1CCN(C(=O)N2CCC(C(=O)N[C@@H](C)c3ccccc3)(c3ccccc3)CC2)CC1
Q. Let's sort these by pKi, smallest first. Go ahead? Record the ranking as a list of labels in the requested order.
A. D, B, C, A

[1] CC[C@H](NC(=O)C1(c2ccccc2)CCN(C(=O)c2ccc(-c3ccc(F)cc3)cc2)CC1)c1ccccc1
[2] C[C@H](NC(=O)C1(c2ccccc2)CCN(C(=O)c2ccc(-c3ccccc3)cn2)CC1)c1ccccc1
Q. Quick check, higher pKi between 1 and 2 ? # answer = label of selected item
A. 1
(1: 8.57, 2: 7.67)

----------
Target Entity: recombinant human NK3 receptor (Homo sapiens)
Method Notes: [3H]SR142801 competition binding assay
Condition Summary: membranes from HEK293 cells transiently expressing recombinant human NK3 receptor; [3H]SR142801 radioligand; 75 min at RT; Ki by Cheng-Prussoff; read-out: Data Ki (hNK-3 receptor affinity)
pKi: −log10 of the molar value.
Endpoint Label: pKi

Worked examples follow.
>>> reported_result("C[C@H](NC(=O)C1(c2ccccc2)CCN(C(=O)c2cc(-c3ccc(F)cc3)no2)CC1)c1ccccc1 [Example 62]")
7.20
>>> reported_result("Cc1noc(-c2ccc(C(=O)N3CCC(C(=O)N[C@@H](C)C4CCCCC4)(c4ccccc4)CC3)cc2)n1 [Example 74]")
9.00
>>> reported_result("C[C@H](NC(=O)C1(c2ccccc2)CCN(C(=O)N2CCN(c3ccc(Cl)cc3)CC2)CC1)c1ccccc1 [Example 219]")
7.90
>>> reported_result("Cc1nc(-c2ccc(C(=O)N3CCC(C(=O)NC(c4ccc(F)cc4)C(F)(F)F)(c4ccc(F)cc4)CC3)cc2)no1 (stereo not shown) [Example 165]")
7.18
>>> reported_result("Cc1noc(-c2ccc(C(=O)N3CCC(C(=O)N[C@@H](C)c4ccc(F)cc4)(c4ccccc4)CC3)cn2)n1 [Example 82]")
8.28

[I] Cc1noc(-c2ccc(C(=O)N3CCC(C(=O)N(C)Cc4ccc(F)cc4)(c4ccccc4)CC3)cc2)n1 [Example 105]
[II] C[C@H](NC(=O)C1(c2ccccc2)CCN(C(=O)c2ccc(N3CCCCC3)cc2)CC1)c1ccccc1 [Example 11]
Q. // pick min by pKi: I , II # answer = label of selected item
A. II
(II: 7.36, I: 8.28)

----------
Target Entity: recombinant human NK3 receptor (Homo sapiens, UniProt P29371)
Sequence (P29371 whole entry): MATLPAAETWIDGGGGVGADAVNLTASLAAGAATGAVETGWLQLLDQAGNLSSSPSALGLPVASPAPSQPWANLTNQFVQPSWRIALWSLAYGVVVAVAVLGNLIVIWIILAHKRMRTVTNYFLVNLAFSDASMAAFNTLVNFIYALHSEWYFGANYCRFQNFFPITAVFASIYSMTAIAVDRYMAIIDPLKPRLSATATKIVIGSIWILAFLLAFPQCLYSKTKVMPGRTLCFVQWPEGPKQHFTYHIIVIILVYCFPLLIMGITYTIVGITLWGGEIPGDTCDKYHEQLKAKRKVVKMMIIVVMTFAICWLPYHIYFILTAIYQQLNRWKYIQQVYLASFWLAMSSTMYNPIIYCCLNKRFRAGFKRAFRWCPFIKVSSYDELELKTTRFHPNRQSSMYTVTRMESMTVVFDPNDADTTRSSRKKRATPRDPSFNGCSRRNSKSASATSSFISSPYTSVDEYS
Method Notes: [3H]SR142801 competition binding assay
Condition Summary: membranes from HEK293 cells transiently expressing recombinant human NK3 receptor; [3H]SR142801 radioligand; 75 min at RT; Ki by Cheng-Prussoff; read-out: Data Ki (hNK-3 receptor affinity)
Protocol: [^3H]SR142801 Competition Binding Assay hNK3 receptor binding experiment were performed using [^3H]SR142801 (Catalog No. TRK1035, specific activity: 74.0 Ci/mmol, Amersham, GE Healthcare UK limited, Buckinghamshire, UK) and membrane isolated from HEK293 cells transiently expressing recombinant human NK3 receptor. […] Nonspecific binding was measured in the presence of 10 μM SB222200 for both radioligands. […]
Endpoint Label: Ki (nM)

Worked examples follow.
>>> reported_result("Cc1noc(-c2ccc(C(=O)N3CCC(C(=O)NC(c4ccc(F)cc4)C(F)(F)F)(c4ccc(F)cc4)CC3)cc2)n1 (centres unmarked)")
15
>>> reported_result("C[C@H](NC(=O)C1(c2ccccc2)CCN(C(=O)c2ccc(-c3ccc(F)cc3)cc2)CC1)c1ccc(Cl)cc1")
17.2
>>> reported_result("CC[C@H](NC(=O)C1(c2ccccc2)CCN(C(=O)c2ccc(N3CCS(=O)(=O)CC3)cc2)CC1)c1ccccc1")
2.8
>>> reported_result("Cc1noc(-c2ccc(C(=O)N3CCC(C(=O)N[C@H](c4cccc(F)c4)C4CC4)(c4ccc(F)cc4)CC3)cc2)n1")
2.2
>>> reported_result("C[C@H](NC(=O)C1(c2ccccc2)CCN(C(=O)c2ccc(-c3ccncc3)cc2)CC1)c1ccccc1")
39.6

[P] C[C@H](NC(=O)C1(c2ccccc2)CCN(C(=O)c2ccc(-c3ccc(F)cc3)cc2)CC1)c1ccc(F)cc1
[Q] Cc1nc(-c2ccc(C(=O)N3CCC(C(=O)NC4(c5ccc(F)cc5)CC4)(c4ccc(F)cc4)CC3)cc2)no1
Q. Quick check, higher Ki between P and Q ? # answer = label of selected item
A. Q

[1] O=C(c1ccc(-c2ccc(F)cc2)cc1)N1CCC(C(=O)N[C@@H](CO)c2ccc(F)cc2)(c2ccc(F)cc2)CC1
[2] C[C@H](NC(=O)C1(c2ccccc2)CCN(C(=O)c2ccc(-c3cncnc3)cc2)CC1)c1ccccc1
[3] C[C@H](NC(=O)C1(c2ccccc2)CCN(C(=O)N2CCC(N3CCSCC3)CC2)CC1)c1ccccc1
[4] O=C(c1ccc(-c2ccc(F)cc2)cc1)N1CCC(C(=O)NCC2CCCCC2)(c2ccc(F)cc2)CC1
Q. Rank entries according to their Ki, from the largest number down. Record the ranking as a list of labels in the requested order.
A. 2, 4, 1, 3
(2: 78.5 nM, 4: 38.2 nM, 1: 11.5 nM, 3: 5.2 nM)

[a] Cc1noc(C2CCN(C(=O)N3CCC(C(=O)N[C@@H](C)c4ccccc4)(c4ccccc4)CC3)CC2)n1
[b] C[C@H](NC(=O)C1(c2ccccc2)CCN(C(=O)c2ccc(-c3nnn(C)n3)cc2)CC1)c1ccccc1
[c] Cc1cccc(N2CCN(C(=O)N3CCC(C(=O)N[C@@H](C)c4ccccc4)(c4ccccc4)CC3)CC2)c1
Q. Let's sort these by Ki, smallest first. Go ahead? Record the ranking as a list of labels in the requested order.
A. a, b, c
